# tgt: recombinant human S1P1 receptor (Homo sapiens, UniProt P21453)
# Sequence (P21453 whole entry): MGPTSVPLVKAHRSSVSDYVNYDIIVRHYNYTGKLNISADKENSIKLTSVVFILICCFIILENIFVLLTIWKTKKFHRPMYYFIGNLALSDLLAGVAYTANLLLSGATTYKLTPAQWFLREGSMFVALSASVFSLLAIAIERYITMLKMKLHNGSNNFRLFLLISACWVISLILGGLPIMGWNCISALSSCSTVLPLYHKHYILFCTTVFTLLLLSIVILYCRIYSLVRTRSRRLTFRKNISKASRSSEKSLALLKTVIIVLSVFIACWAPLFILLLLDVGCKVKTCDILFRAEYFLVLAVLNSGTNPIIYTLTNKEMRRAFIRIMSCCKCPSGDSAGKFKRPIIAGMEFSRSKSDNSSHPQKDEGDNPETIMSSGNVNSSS
# assay-comment: GTPγS assay to determine EC50 values
# condition-set: 35S-GTPγS binding, membrane preparations of CHO cells expressing recombinant human S1P1 receptor, pH 7.4
readout-name: EC50 (nM)

[
  {
    "compound": "Cc1cc(CCC(=O)c2scc(CC(C)C)c2CC(C)C)cc(C)c1O",
    "readout-name": "EC50",
    "recorded-result": 8.4
  },
  {
    "compound": "CCCc1c(CC(C)C)csc1C(=O)CCc1cc(C)c(OC[C@@H](O)CO)c(C)c1",
    "readout-name": "EC50",
    "recorded-result": 7.5
  },
  {
    "compound": "CCc1cc(-c2noc(-c3cc(CC(C)C)c(C)s3)n2)cc(C)c1CCC(=O)NCCO",
    "readout-name": "EC50",
    "recorded-result": 7.5
  },
  {
    "compound": "CCCc1c(CC(C)C)csc1C(=O)/C=C/c1cc(C)c(O)c(C)c1",
    "readout-name": "EC50",
    "recorded-result": 5.8
  },
  {
    "compound": "CCc1cc(-c2nnc(-c3sc(C)c(CC(C)C)c3C)o2)cc(C)c1OC[C@@H](O)CNC(=O)CO",
    "readout-name": "EC50",
    "recorded-result": 0.4
  },
  {
    "compound": "Cc1cc(-c2noc(-c3sc(C)c(CC(C)C)c3C)n2)cc(C)c1OCC(O)CNC(=O)CO (racemic)",
    "readout-name": "EC50",
    "recorded-result": 2.1
  }
]

I = CCc1cc(-c2noc(-c3cc(CC(C)C)c(C)s3)n2)cc(C)c1OCC(O)CNC(=O)CO (racemic)
II = Cc1cc(-c2noc(-c3scc(CC(C)C)c3C)n2)cc(C)c1OC[C@@H](O)CNC(=O)CO
QUERY: // compare measured EC50, left I , right II , return larger // return label of chosen record
RESULT: I
(I: 5.5 nM, II: 1.1 nM)
